assay target: recombinant homotrimeric HA A/Wisconsin/67/05 H3N2 (Influenza A virus A/Wisconsin/67/2005(H3N2))
assay method text: protein microarray, purified IgG, trimeric HA
conditions used: remark: other sources report otherwise
measured endpoint: Trimeric HA Binding: RLU (RLU)

binder	measured endpoint	number
TCN-543 (5081_G23) (antibody, V domains shown) VH: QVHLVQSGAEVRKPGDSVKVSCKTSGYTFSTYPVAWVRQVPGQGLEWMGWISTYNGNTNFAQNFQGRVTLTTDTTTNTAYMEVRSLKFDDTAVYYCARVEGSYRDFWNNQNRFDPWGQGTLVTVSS VL: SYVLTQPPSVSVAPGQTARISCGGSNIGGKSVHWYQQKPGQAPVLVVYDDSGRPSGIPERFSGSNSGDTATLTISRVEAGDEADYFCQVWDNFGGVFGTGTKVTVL	Trimeric HA Binding: RLU	302
TCN-540 (5060_F05) (antibody, V domains shown) VH: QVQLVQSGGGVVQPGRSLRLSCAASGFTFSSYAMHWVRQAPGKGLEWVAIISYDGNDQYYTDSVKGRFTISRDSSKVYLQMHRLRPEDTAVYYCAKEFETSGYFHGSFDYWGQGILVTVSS VL: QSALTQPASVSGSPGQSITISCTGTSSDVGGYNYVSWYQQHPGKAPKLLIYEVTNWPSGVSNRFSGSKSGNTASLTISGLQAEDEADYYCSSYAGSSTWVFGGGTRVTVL	Trimeric HA Binding: RLU	6900
TCN-529 (5297_H01) (antibody, V domains shown) VH: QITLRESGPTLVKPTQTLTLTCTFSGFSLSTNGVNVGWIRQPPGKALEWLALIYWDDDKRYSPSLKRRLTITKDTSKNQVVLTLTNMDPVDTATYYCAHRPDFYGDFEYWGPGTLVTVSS VL: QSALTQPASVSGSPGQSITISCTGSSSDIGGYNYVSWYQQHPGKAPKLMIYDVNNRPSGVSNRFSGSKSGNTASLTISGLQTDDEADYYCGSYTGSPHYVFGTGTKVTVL	Trimeric HA Binding: RLU	25600
